These entries and their values trace back to the supplement of paper PMC10724198.

System: Saccharomyces cerevisiae
Assay: protein stability index of tFT-peptide fusion (C-terminal peptide) (PSI (0-1 scale)); higher = more stable (slower turnover)
Details: genetic background: wild type; temperature: 30 C
Classification field: label 1 = protein stability index at or over 0.3; label 0 = protein stability index under 0.3.

WVWCVCVVVWCG	label 0
KLRELQVRQQLS	label 0
LLFLWVLFLPFA	label 1
GMLIYVIGGLSH	label 1

For this sequence, is measured protein stability index 0.3 or higher? KLLDHFVKIRVY
label 0

Can VVRVIWCQFSCF be said to have protein stability index at or above 0.3?
label 0

Determine whether measured protein stability index meets or exceeds 0.3 for FVLFSIFHFFLW
label 1

----------
Test system: Saccharomyces cerevisiae
Assay: protein stability index of tFT-peptide fusion (C-terminal peptide) (PSI (0-1 scale)); higher = more stable (slower turnover)
Details: genetic background: wild type; temperature: 30 C
Readout type: protein stability index
One number for each entry.

Some solved cases for reference:
SPPPPPLPPSPR	0.713
KGRAGTDVPLAR	0.712
FTPPPLLLPPPP	0.698
PPLPPPLRPPPS	0.685
DWFGGSVRVDEN	0.693

I'm hoping you can list protein stability index for every sequence here, please.
1. GAAKDYLMALEG
2. PPSPPPPPPPPP

[0.705, 0.685]

Return protein stability index measured with Saccharomyces cerevisiae given this sequence: RPLPPLPPPSCP
0.71

----------
I'd be grateful if you could share measured protein stability index for these entries.
System: Saccharomyces cerevisiae
Assay: protein stability index of tFT-peptide fusion (C-terminal peptide) (PSI (0-1 scale)); higher = more stable (slower turnover)
Details: genetic background: wild type; temperature: 30 C
Answers are plain numbers.

For orientation, consider the following solved cases.
KYFHEDVSEDAY [MET5 C-terminal 12 aa]	0.699
NRSSKIVSIRED [CPR8 C-terminal 12 aa]	0.714

Moving on to the next sequence.
Would you mind telling me what protein stability index value was observed for MVNEWIHGGFSL [PRC1 C-terminal 12 aa] ?
0.702

----------
System: Saccharomyces cerevisiae
Assay: protein stability index of tFT-peptide fusion (C-terminal peptide) (PSI (0-1 scale)); higher = more stable (slower turnover)
Settings: genetic background: wild type; temperature: 30 C
Readout type: protein stability index
One number for each entry.

Examples with their reported protein stability index follow.
CMEYFMHFVKGD	0.701
APVQLDNKVVLM	0.699
SFSSLVLSSCFW	0.706
ENLFLRRVWFCR	0.686
LLPPPPPASPAI	0.696
RLSCCKCRGGAV	0.698

Record protein stability index for all entries; do not skip any.
1. MGSGRGVITTKG
2. GMLIYVIGGLSH
3. VLFPPLCLSFCF
4. CVFSEMIVCDGG

1: 0.704; 2: 0.508; 3: 0.498; 4: 0.566

----------
Field: protein stability index. Provide a value for each of the sequences that follow.
Tested on: Saccharomyces cerevisiae
Experiment: protein stability index of tFT-peptide fusion (C-terminal peptide) (PSI (0-1 scale)); higher = more stable (slower turnover)
Details: genetic background: das1 deletion; temperature: 30 C

Look over these answered cases.
HSAIFLFFFFFG	0.314
VFWVVFRALVGD	0.217
CNIYVLIIIKKY	0.192
HILRLVYFIVYE	0.316
LLFPRVLVLCFS	0.124

Look at each sequence and report its protein stability index.
1. SRSVLLCFCWLC
2. PLFLRPLSVPVL
3. FVSAFVCLLCLV

1. 0.411
2. 0.333
3. 0.509
